Reference for the values: PubChem BioAssay (NCI)

- Test system: MCF7 breast
- experimental-details: NCI-60 one-dose screen, 48 h (100 = growth as untreated, 0 = no growth, -100 = all killed)
- reported-conditions: 10 µM unless noted
About 83,000 compounds went through this panel and 20% of them were active in at least one assay; those are over-represented in the sample as a whole.
endpoint-name: growth (%)
// return numeric value only (unit: %, not printed)

Input line: What measured growth goes with NCCC(=O)c1ccc(Cl)cc1 ?
Output line: 110

Input line: Lookup CC1C(=O)c2ccccc2CC1C(=O)O (stereo not drawn)
Output line: 99.3

Input line: Lookup COC(=O)C(C)Oc1ccc(OC#N)cc1 (stereo not drawn)
Output line: 98

Input line: Lookup COC(=O)/C=C1\Sc2cc(F)ccc2NC1=O
Output line: 83.7

Input line: Lookup NC(C(=O)O)c1ccc([N+](=O)[O-])cc1 (stereo not drawn)
Output line: 95.3

Input line: Lookup CCOC(=O)Nc1nn[nH]n1
Output line: 103

====

- System: LOX IMVI melanoma
- experimental-details: NCI-60 one-dose screen, 48 h (100 = growth as untreated, 0 = no growth, -100 = all killed)
- reported-conditions: 10 µM
- Description: Growth inhibition of the LOX IMVI human tumor cell line is measured as a screen for anti-cancer activity. Cells are grown in 96 well plates and exposed to the test compound for 48 hours. Compounds are tested at a single concentration, which is 10^-5 M for most compounds. The reported endpoint is percent growth (GI% or GIPRCNT), where numbers from 0 - 100% represent growth inhibition, and numbers from -100% - 0 represent cell death. For example, a value of 40 represents 60% growth inhibition. […]
About 83,000 compounds went through this panel and 20% of them were active in at least one assay; those are over-represented in the sample as a whole.
Listed here: items and their measured growth.
// return numeric value only (unit: %, not printed)

O=c1[nH]cc(Cl)cc1O : 65.5
CC(=O)OCC1OC(OC2=C(CC=C(C)C)C(=O)c3ccccc3C2=O)C(OC(C)=O)C(OC(C)=O)C1OC(C)=O (centres undefined) : 6.88
Cc1cc2nc(CO)[nH]c2cc1C : 110

Attention now shifts to the item below.
Input line: What measured growth goes with O=C(O)CCC(NC(=O)OCc1ccccc1)C(=O)O (centres undefined) ?
Output line: 98.9

====

- Test system: SF-539 CNS
- experimental-details: NCI-60 one-dose screen, 48 h (100 = growth as untreated, 0 = no growth, -100 = all killed)
- reported-conditions: 10 µM
- Procedure: Cells are grown in 96 well plates and exposed to the test compound for 48 hours. Compounds are tested at a single concentration, which is 10^-5 M for most compounds. The reported endpoint is percent growth (GI% or GIPRCNT), where numbers from 0 - 100% represent growth inhibition, and numbers from -100% - 0 represent cell death. For example, a value of 40 represents 60% growth inhibition. A value of 0 means no net growth occurred over the course of the experiment. […]
This is part of a sample that, as a whole, favours compounds with a hit. Of some 83,000 tested, about 20% had one in any assay. Active and inactive are the calls of the source. Rule for the calls: active = growth percent below 10; inactive = the rest.
endpoint-name: growth

Solved cases (2 shown):
CN(C)c1ccc(S(=O)(=O)O)cc1 : 91.2% (inactive)
Cc1cc(NC(=O)CSCC(=O)O)no1 : 96.4% (inactive)

Attention now shifts to the item below.
Input line: What measured growth goes with O=[N+]([O-])c1cccc(N=Nc2ccc(O)cc2O)c1 ?
Output line: 89.7% (inactive)
